Species: Homo sapiens
Assay: Inhibitory concentration required for the inhibition of U-46,619 induced aggregation of human platelets.
Type: functional
Please provide measured IC50 for the entries that follow.
Give bare numbers, in nM.

Worked cases, IC50 given:
{"COMPOUND": "O=C(O)CCC/C=C/c1c(Cc2cccnc2)ccc2c1CCC(NS(=O)(=O)c1ccc(Cl)cc1)C2 (stereo not drawn)", "NUMERIC_READOUT": 450}
{"COMPOUND": "O=C(O)CCC/C=C\\c1c(Cc2cccnc2)ccc2c1CCC(NS(=O)(=O)c1ccc(Cl)cc1)C2 (stereo not drawn)", "NUMERIC_READOUT": 160}

Exam item: Param item = O=C(O)CCc1cc(-c2cccnc2)cc2c1CCC(NS(=O)(=O)c1ccc(Cl)cc1)C2 (stereo not drawn) ; retrieve measured IC50.
Marked response: 670
